- Test system: SNB-19 CNS
- assay: NCI-60 one-dose screen, 48 h (100 = growth as untreated, 0 = no growth, -100 = all killed)
- applied conditions: 10 µM unless noted
The panel holds about 83,000 compounds, 20% with a hit somewhere; the sample as a whole holds those more often.
property measured: growth (%)
Give bare numbers, in %.

Example cases with answers are listed next.
Lab note: N#C/C(=C\c1ccc(-c2cccc(Cl)c2)o1)C(=O)Nc1ncc(Cc2ccc(Cl)cc2)s1 gave growth of 77.4

Lab note: Cc1ccc(Cc2cnc(NC(=O)/C=C/c3ccc(C)o3)s2)cc1 gave growth of 56.4

Lab note: C[C@H]1[C@H](C)CC[C@]2(C(=O)NCCNCCN)CC[C@]3(C)C(=CC[C@@H]4[C@@]5(C)CCC(=O)C(C)(C)[C@@H]5CC[C@]43C)[C@H]12 gave growth of 71.6

Okay, now this compound:
Lab note: COc1cc2ncnc(Nc3ccc(S(=O)(=O)Nc4nccs4)cc3)c2cc1OCCCN1CCCC1 gave growth of 103

---

- Tested on: SNB-75 CNS
- assay: NCI-60 one-dose screen, 48 h (100 = growth as untreated, 0 = no growth, -100 = all killed)
- applied conditions: 10 µM unless noted
About 83,000 compounds went through this panel and 20% of them were active in at least one assay; those are over-represented in the sample as a whole.
Each entry falls into one class according to its growth; the ranges are class 0: < 50%; class 1: ≥ 50% and < 80%; class 2: ≥ 80%

Hi, small favor: classify Cc1ccc(O)c(NC(=O)c2cccc(Nc3ccnc(C(F)(F)F)c3)c2)c1 by its growth when you get a moment.
class 2

Hi, small favor: classify CCOC(=O)c1nnn(-c2no[n+]([O-])c2-c2ccc(OC)cc2)c1COc1cccc2cccnc12 by its growth when you get a moment.
class 1

Hi, small favor: classify C[C@@H]1NC(=O)[C@H](Cc2ccccc2)N(Cc2cccnc2)C1=O by its growth when you get a moment.
class 2

Hi, small favor: classify COc1ccc(-c2cc(-c3cccnc3)nc3sc4c(N)c(C(C)=O)c(-c5ccccc5)nc4c23)cc1OC by its growth when you get a moment.
class 1

Hi, small favor: classify Cc1nn(-c2ccc([N+](=O)[O-])cc2)c2ncnc(N/N=C/c3ccccc3O)c12 by its growth when you get a moment.
class 0

Hi, small favor: classify CCOC(=O)c1c(C)nc2c(c1N)C(=O)C(=O)N2Cc1ccc(OC)cc1 by its growth when you get a moment.
class 0

Hi, small favor: classify CCn1cc(C(=O)N/N=C/c2cccc(F)c2)c(=O)c2cc(F)c(N3CCNC(C)C3)c(F)c21 (centres undefined) by its growth when you get a moment.
class 2

Hi, small favor: classify OC1CSSC1Cn1cnc2c(Nc3ccc(OCc4cccc(F)c4)c(Cl)c3)ncnc21 (centres undefined) by its growth when you get a moment.
class 1

---
Hi, small favor: classify O=C(Nc1cc(Cl)cc(Cl)c1)Oc1c(Cl)c(Cl)c(Cl)c(Cl)c1Cl by its growth when you get a moment.
class 1

---

- System: EKVX NSCLC
- assay: NCI-60 one-dose screen, 48 h
- applied conditions: 10 µM unless noted
This is part of a sample that, as a whole, favours compounds with a hit. Of some 83,000 tested, about 20% had one in any assay. Activity calls are given as the source filed them. How the source made its calls: active means growth percent below 10; inactive means the rest.
# output must be one of active, inactive

Any idea what this test logged for Clc1ccc(-c2cc(-c3ccccc3)nc(N3CCN(CCCNc4ccnc5cc(Cl)ccc45)CC3)n2)cc1 ?
inactive

Any idea what this test logged for NS(=O)(=O)c1ccc(C(=O)N=Nc2c(O)[nH]c3ccc(Cl)cc23)cc1 ?
inactive

---

- System: MCF7 breast
- assay: NCI-60 one-dose screen, 48 h (100 = growth as untreated, 0 = no growth, -100 = all killed)
- applied conditions: 10 µM unless noted
About 83,000 compounds went through this panel and 20% of them were active in at least one assay; those are over-represented in the sample as a whole.
Provide the recorded growth for the entries that follow.
Numbers only, in %.

Example cases with answers are listed next.
The value of growth recorded for CCCN(CCSSCCNc1nc(N(C)O)nc(N(C)O)n1)c1nc(N(C)O)nc(N(C)O)n1 when tested on MCF7 breast reads 83.2

The value of growth recorded for c1ccc(-c2ccc3c(c2)C2(CCNCC2)CN3)cc1 when tested on MCF7 breast reads 80.2

The value of growth recorded for O=c1cc(CNc2cc(F)cc(F)c2)c2ccc(I)cc2[nH]1 when tested on MCF7 breast reads 21.9

Quick batch: growth for everything below.
1. CNC(=O)NCC1OC(n2cnc3c(NC(=O)Nc4ccccc4)ncnc32)C2OC(=O)CC12 (stereo not given)
2. ClC(Cl)c1nc(-c2ccccc2)n2nc(-c3ccccc3)cc2n1
3. COc1cc2c(c(OC)c1OC)C(=O)CC(c1cccc(C(=O)Nc3ccccc3Br)c1)O2 (stereo not given)
4. C=CN(C(=O)N1CCN(c2cc3c(cc2F)c(=O)c(C(=O)O)cn3C2CC2)CC1)c1nc(-c2ccc(Cl)cc2)cs1

97.9
3.37
68.9
51.3

Quick batch: growth for everything below.
1. CCCCCCCCn1ccc2cc(NC(=O)CN3CCN(c4cc(C)nc(Cl)n4)CC3)ccc21
2. COc1c2c(cc3c1C(=O)N[C@@H]1[C@@H](O)[C@@H](O)[C@H](O)C[C@@H]31)OCCO2
3. CN(C)Cc1ccc(NC(=O)c2cncc(C#Cc3cnc(N)c4ncccc34)c2)cc1C(F)(F)F
4. Nc1c(C(=O)Nc2cccc3ncccc23)sc2nc3c(cc12)CN(Cc1ccccc1)CC3
5. c1cc(OCCN2CCCCCC2)ccc1CNc1ccc2nc(CCC3CCCCC3)[nH]c2c1
6. CCN(CC)CCCC(Cc1ccccc1)Nc1c2ccc(Cl)cc2nc2ccc(OC)cc12 (stereo not given)

1. 75.4
2. 93.9
3. -72.4
4. 53.1
5. 5.67
6. -9.45

Quick batch: growth for everything below.
1. CC(C)Cc1nc(Nc2ccccc2)[nH]c(=O)c1C#N
2. Cc1cc(NCCCNc2ccnc3cc(Cl)ccc23)nc(Nc2ccc(C(=O)N3CCCCC3)cc2)n1
3. O=CN1N=C(c2cccc(Nc3ccnc4cc(Cl)ccc34)c2)CC1c1ccc(Cl)cc1 (stereo not given)

1: 53.4; 2: 6.95; 3: 14.6

---

- Tested on: CAKI-1 renal
- assay: NCI-60 one-dose screen, 48 h (100 = growth as untreated, 0 = no growth, -100 = all killed)
- applied conditions: 10 µM unless noted
- Description: Growth inhibition of the CAKI-1 human tumor cell line is measured as a screen for anti-cancer activity. Cells are grown in 96 well plates and exposed to the test compound for 48 hours. Compounds are tested at a single concentration, which is 10^-5 M for most compounds. The reported endpoint is percent growth (GI% or GIPRCNT), where numbers from 0 - 100% represent growth inhibition, and numbers from -100% - 0 represent cell death. For example, a value of 40 represents 60% growth inhibition. […]
This is part of a sample that, as a whole, favours compounds with a hit. Of some 83,000 tested, about 20% had one in any assay.
property measured: growth (%)
One number for each entry, in %.

Lab note: C=C(C)[C@@H]1CC[C@]2(C(=O)N3CCN(C)CC3)CC[C@]3(C)[C@H](CC[C@@H]4[C@@](C)(CCC(=O)O)[C@H](C(=C)C)CC[C@]43C)[C@@H]12 gave growth of 63.1

Lab note: COc1cc(/C=C/c2cn[nH]c2-c2ccc(C)cc2)cc(OC)c1OC gave growth of 32.6

Lab note: N#CC1=C(N)Oc2c(sc3c(F)cccc23)C1c1ccc([N+](=O)[O-])cc1 (stereo not given) gave growth of 0.858

Lab note: O=C1CCC(C(=O)N/N=C/c2cc(F)ccc2F)N1 (stereo not given) gave growth of 98

---
Lab note: COc1ccc(Oc2ccc(/C=C/C(=O)c3ccc(OC)c(OC)c3)cc2)cc1 gave growth of 85.5

---

- Tested on: NCI-H460 lung
- assay: NCI-60 one-dose screen, 48 h
- applied conditions: 10 µM unless noted
This is part of a sample that, as a whole, favours compounds with a hit. Of some 83,000 tested, about 20% had one in any assay. The source made the active and inactive calls. Rule for the calls: active = growth percent below 10; inactive = the rest.
# output must be one of class 1 for active, class 0 for inactive

Before answering, review these 6 worked examples.
Any idea what this test logged for O=C(Nc1ccc(Oc2cccc(Cl)c2)c(Cl)c1)c1cccnn1 ?
class 0

Any idea what this test logged for CC(=O)c1sc(-c2ccc(F)cc2)cc1O ?
class 0

Any idea what this test logged for COc1cc(/C=N/NC(=O)c2ccc(-n3cc(-c4ccccc4)nn3)cc2)cc(OC)c1OC ?
class 0

Any idea what this test logged for O=C(C[C@]1(O)C(=O)Nc2ccc(Br)cc21)c1ccco1 ?
class 0

Any idea what this test logged for CCCc1cc(=O)oc2c(C(=O)CC(C)C)c(O)c(CC=C(C)C)c(O)c12 ?
class 0

Any idea what this test logged for CCOC(=O)/C=C1\S/C(=N\Nc2cc(=O)[nH]c3ccc(Br)cc23)N(c2ccccc2)C1=O ?
class 0

Next compound, please.
Any idea what this test logged for C#COc1cccc(Nc2ncnc3cc(NC(=O)[C@H](C)Cl)ccc23)c1 ?
class 1
